Data provenance is PubChem BioAssay (NCI).

# TGI per record follows
Tested on: DMS 114 small cell lung
Test: NCI tumour cell line growth inhibition, 48 h

| Molecule | TGI |
| --- | --- |
| NC(=O)C1(c2ccccc2)Nc2ccccc2S1 (stereo not given) | > 100 µM |
| CC(C)C(=O)N1C(=O)O[C@@H](c2ccccc2)[C@H]1C | > 100 µM |
| CCC(C(C)N1CC(=O)NC(=O)C1)N1CC(=O)NC(=O)C1 (stereo not given) | > 95 µM |
| Cc1noc(C)c1C1=CCCCc2ccccc21 | > 100 µM |
| CN1CCN(CCn2c3c4ccccc4ccc3c3oc(=O)c4ccccc4c32)CC1 | 3.84 µM |
| CC(=O)c1c(P(=O)(OC(C)C)OC(C)C)nn(-c2ccc([N+](=O)[O-])cc2)c1C | > 100 µM |
| CC(C)=CC1CCc2ccccc2N1S(=O)(=O)c1ccc(C)cc1 (stereo not given) | 4.12 µM |
| COc1ccc(CC#N)c(OCc2ccccc2)c1 | > 100 µM |
| O=C1OC2C(O)COC2(O)C1(O)Cc1c[nH]c2ccccc12 (stereo not given) | > 100 µM |
| FC(F)(F)C1(Cl)C(Cl)(c2ccccc2)C1(Cl)c1ccccc1 (stereo not given) | 29.2 µM |
| COc1ccc(/C=C/C(=O)c2sc(NC(=S)NC(=O)c3ccccc3F)nc2C)cc1OC | > 100 µM |
| O=C(CCN1CCCC1)CC(c1ccccc1)c1c(O)c2ccccc2oc1=O (stereo not given) | > 100 µM |
| CCCCC#COS(=O)(=O)c1ccc(C)cc1 | > 100 µM |
| CC(=O)[CH-]C(C)=O.CC(=O)[CH-]C(C)=O.[CH2-]CCCCCCC.[CH2-]CCCCCCC.[Sn+4] | 31.2 µM |
| C=CCC12CC(=O)CCC1CC(=O)C2 (stereo not given) | > 100 µM |
